The listing below reports SI (CC50/IC50) for compounds tested on EBOV minigenome activity.
Counter-ions that a name gives are not always drawn.
Form rule: numeric answer, no unit written next to it.

// worked examples, SI (CC50/IC50) included
COc1ccc(C[C@H](N)C(=O)N[C@H]2[C@@H](O)[C@H](n3cnc4c(N(C)C)ncnc43)O[C@@H]2CO)cc1 [puromycin hydrochloride] = 4.043
C[C@H]1O[C@@H](O[C@H]2[C@@H](O)C[C@H](O[C@H]3[C@@H](O)C[C@H](O[C@H]4CC[C@@]5(C)[C@H](CC[C@@H]6[C@@H]5CC[C@]5(C)[C@@H](C7=CC(=O)OC7)CC[C@]65O)C4)O[C@@H]3C)O[C@@H]2C)C[C@H](O)[C@@H]1O = 0.62
CC(C)=CCC[C@]1(C)C=Cc2c(O)c3c(c(CC=C(C)C)c2O1)O[C@]12C(=C[C@@H]4CC1C(C)(C)O[C@@]2(C/C=C(/C)C(N)=O)C4=O)C3=O [gambogic amide] = 0.45
CC1=CC(=O)c2c(O)cccc2C1=O = 0.823
CC(=O)Oc1c2c(c(CC=C(C)C)c3c1C(=O)C1=C[C@@H]4CC5C(C)(C)OC(C/C=C(\C)C(=O)O)(C4=O)[C@@]15O3)OC(C)(CCC=C(C)C)C=C2 (stereo partly drawn) = 0.983

# ---- query compound ----
Query string: Form: Entry = CC(=O)O[C@@H]1C[C@H]2C(C)(C)C(=O)C=C[C@]2(C)[C@H]2CC[C@@]3(C)[C@H](c4ccoc4)OC(=O)[C@H]4O[C@]43[C@@]21C | System = EBOV minigenome activity | SI (CC50/IC50) = ____
Result string: 6.829

Data credit: paper PMC4537067
